protocol notes: adipocyte viability effects, profiling panel, cell-based, 3T3-L1 adipocytes, calcein-AM fluorescence, 48 h, basal (AID 1163); further: test concentration not given here
condition: 3T3-L1 adipocytes viability, higher = more signal
measurement type: z-score

[Q] Answer with reported z-score of CC(=O)NCCCC[C@@H]1NC(=O)[C@@H]2C[C@H](C(=O)NCCCCCNC(=O)CS)[C@H](c3cccc(OCCO)c3)N2C1=O
[A] 0.767

[Q] Supply reported z-score belonging to this compound: COc1ccc([Si](C)(C)[C@H]2[C@H](CCO)O[C@@]3(C(=O)N(Cc4ccc(N(C=O)c5ccccc5)cc4)c4ccccc43)[C@@H]2C)cc1
[A] -1.32

[Q] Output z-score of C=C(CCCC)/C(=C/C[C@H](OC(C)=O)c1ccccc1OCCO)c1cc(C(=O)OC)ccc1OC
[A] 1.66

[Q] Entry COc1ccc(CCNC(=O)[C@@]2(C)c3ccccc3C(=O)N(C(C)C)[C@H]2c2ccc(CO)cc2)cc1 needs its z-score filled in; supply it.
[A] -0.103

[Q] Specify reported z-score for the compound shown: CCCc1cc2c(n1Cc1cc(F)cc(F)c1)C(C)C1CN(C(=O)c3ccccc3)C(C)(C(=O)OC)C21 (stereo unspecified)
[A] 0.149

[Q] Supply measured z-score of O=C1c2ccccc2[C@](Cc2ccccc2I)(C(=O)NCCN2CCOCC2)[C@H](c2ccc(CO)cc2)N1Cc1ccccc1Cl in your reply.
[A] 0.261

[Q] Answer with the recorded z-score of C=CCN1C(=O)[C@@]2(Cc3ccccc31)N=C(c1ccc(OCCCO)cc1)O[C@H]2c1ccccc1 only.
[A] -0.107

[Q] Quick one: give measured z-score for COC(=O)[C@@]1(Cc2ccccc2)[C@H]2c3cc(C(=O)N(C)C)n(Cc4ccsc4Br)c3C[C@H]2CN1C(=O)c1ccccc1
[A] -1.34

[Q] Find the measured z-score of COC(=O)c1c(CC[C@@H](CO)NC(=O)NCCn2cc(C3(O)CCCC3)nn2)oc(C(C)=O)c1C(=O)OC and report it.
[A] 0.154

[Q] # return recorded z-score for entry CCCC[C@@H]1C[C@H]1[C@@H](NC(=O)c1ccco1)c1ccccc1C(F)(F)F
[A] -1.51

[Q] Please give measured z-score of the following entry: O=C(N1CCCCC1)[C@]1(Cc2ccccc2)N=C(c2ccc(OCCCO)cc2)O[C@@H]1c1ccccc1
[A] 1.16

[Q] Answer with reported z-score of COc1ccc(C(O)C2C=CC3C(=O)N(Cc4ccccc4)C(=O)C3N2n2cnnc2)cc1OCc1ccccc1 (stereo unspecified)
[A] 0.534

[Q] Specify reported z-score for the compound shown: COC(=O)[C@@]1(Cc2ccccc2)N=C(c2ccc(OCCCO)cc2)O[C@H]1c1ccccc1
[A] 0.598

[Q] Identify z-score associated with the compound CN(C)CCCC[C@@H]1NC(=O)[C@H]2C[C@@H](C(=O)NCCCCCCN)[C@@H](c3ccc(O)cc3)N2C1=O
[A] 0.526

[Q] Dear colleague, please send me the reported z-score for COc1ccc([C@H]2OC[C@@H]3C[C@@H](Cc4ccccc4)C(=O)N32)cc1 when you can.
[A] 0.0138

[Q] Look up z-score of NC(=O)NCC#Cc1ccc2c(c1)[C@]1(C(=O)N2)[C@H](c2ccccc2OCCO)N2[C@H](c3ccccc3)[C@H](c3ccccc3)OC(=O)[C@H]2[C@@H]1C(=O)Nc1nc2ccccc2s1 and report it.
[A] 0.226
